Please respond with reported melting point for every item in the list.
Use °C as the unit, but write only the number.

Challenge: Return melting point for the following compound: "Cc1cc(-c2sc(N3C[C@@H](C)O[C@@H](C)C3)nc2CNC(=O)c2onc(C)c2C)cc(C)n1"
Response given: 192

Challenge: Return melting point for the following compound: "Cc1cc(-c2sc(N3CC4CCC(C3)O4)nc2CNC(=O)c2conc2C)cc(C)n1"
Response given: 94

Challenge: Return melting point for the following compound: "Cc1cc(-c2sc(N3C[C@@H](C)O[C@@H](C)C3)nc2CNC(=O)c2ccc(Cl)c(Cl)c2)cc(C)n1"
Response given: 185

Challenge: Return melting point for the following compound: "Cc1cc(-c2sc(N3C[C@@H](C)O[C@@H](C)C3)nc2CNC(=O)CCC2CC2)cc(C)n1"
Response given: 168

Challenge: Return melting point for the following compound: Cc1cc(-c2sc(N3CC(C)OC(C)C3)nc2CNC(=O)c2ccc(Cl)cc2)cc(C)n1 (racemic)
Response given: 184

Challenge: Return melting point for the following compound: "Cc1cc(-c2sc(N3CCOCC3)nc2CNC(=O)c2ccc(F)cc2)cc(C)n1"
Response given: 210

Challenge: Return melting point for the following compound: "Cc1cc(-c2sc(N3CCOCC3)nc2CNC(=O)c2ccc(F)cc2C)cc(C)n1"
Response given: 221

Challenge: Return melting point for the following compound: "COCC(=O)NCc1nc(N2C[C@@H](C)O[C@@H](C)C2)sc1-c1cc(C)nc(C)c1"
Response given: 150

Challenge: Return melting point for the following compound: "O=C(CC1CC1)NCc1nc(N2CCOCC2)sc1-c1ccncc1"
Response given: 135

Challenge: Return melting point for the following compound: "Cc1ccc(-c2sc(N3C[C@@H](C)O[C@@H](C)C3)nc2CNC(=O)c2cc(C)on2)cn1"
Response given: 148

Challenge: Return melting point for the following compound: Cc1cc(-c2sc(N3CCOC(C)C3)nc2CNC(=O)C(C)C)cc(C)n1 (single isomer, unassigned) [Compound 71]
Response given: 188

Challenge: Return melting point for the following compound: "Cc1ccc(-c2sc(N3C[C@@H](C)O[C@@H](C)C3)nc2CNC(=O)CC2CC2)cn1"
Response given: 139

Challenge: Return melting point for the following compound: "Cc1cc(-c2sc(N3CCO[C@H](C(F)(F)F)C3)nc2CNC(=O)CC2CC2)cc(C)n1"
Response given: 183

Challenge: Return melting point for the following compound: "Cc1cc(-c2sc(N3C[C@@H](C)O[C@@H](C)C3)nc2CNC(=O)CC2CC2)cc(C)n1"
Response given: 174

Challenge: Return melting point for the following compound: "Cc1cc(-c2sc(N3C[C@@H](C)O[C@@H](C)C3)nc2CNC(=O)c2ncsc2C)cc(C)n1"
Response given: 180

----------
biological target: human alpha 7-wt nAChR (Homo sapiens, UniProt P36544); construct: expressed in transfected cells; experiment: Ca2+ flux imaging (FDSS) (Protocol B); format: cell-based; conditions: efficacy of 100 μM choline defined as 100% in the absence of a PAM; read-out: a7-PAM-G_[33]_Eff_Curve_FI % Efficacy
Sequence (P36544 23-502): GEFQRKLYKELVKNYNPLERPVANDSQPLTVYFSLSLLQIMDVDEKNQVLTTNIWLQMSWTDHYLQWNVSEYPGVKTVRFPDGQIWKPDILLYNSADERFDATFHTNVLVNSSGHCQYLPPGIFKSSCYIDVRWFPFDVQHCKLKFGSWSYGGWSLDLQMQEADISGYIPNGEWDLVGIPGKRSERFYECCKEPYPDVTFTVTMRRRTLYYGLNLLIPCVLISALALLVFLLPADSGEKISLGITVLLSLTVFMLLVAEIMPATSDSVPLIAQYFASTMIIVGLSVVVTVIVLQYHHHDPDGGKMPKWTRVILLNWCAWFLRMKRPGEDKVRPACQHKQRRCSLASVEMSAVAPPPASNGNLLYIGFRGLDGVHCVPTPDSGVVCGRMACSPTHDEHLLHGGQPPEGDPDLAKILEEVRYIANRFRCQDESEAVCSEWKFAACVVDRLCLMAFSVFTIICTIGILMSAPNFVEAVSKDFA
Is Emax at least 600%? Then y. If not, n.

Challenge: Check this compound for Emax at or above 600%: Cc1ccc(-c2sc(N3C[C@@H](C)O[C@@H](C)C3)nc2CNC(=O)c2ccc(Cl)cc2)cn1 [Compound 123]
Response given: y

Challenge: Check this compound for Emax at or above 600%: Cc1cc(-c2sc(N3C[C@@H](C)O[C@@H](C)C3)nc2CNC(=O)c2ncsc2C)cc(C)n1 [Compound 178]
Response given: y

Challenge: Check this compound for Emax at or above 600%: Cc1cc(-c2sc(N3C[C@@H](C)O[C@@H](C)C3)nc2CNC(=O)C(C)C2CC2)cc(C)n1 (stereo partly drawn) [Compound 179]
Response given: y

Challenge: Check this compound for Emax at or above 600%: Cc1cc(-c2sc(N3C[C@@H](C)O[C@@H](C)C3)nc2CNC(=O)c2ccn(C)n2)cc(C)n1 [Compound 142]
Response given: y

Challenge: Check this compound for Emax at or above 600%: Cc1cc(-c2sc(N3C[C@@H](C)O[C@@H](C)C3)nc2CNC(=O)c2ccc(F)cc2)cc(C)n1 [Compound 8]
Response given: n

----------
reported-property: melting point (°C)
Use °C as the unit, but write only the number.

Challenge: Return melting point for the following molecule: Cc1cc(-c2sc(N3CCOCC3)nc2CNC(=O)C2CCC2)cc(C)n1 [Compound 65]
Response given: 188

Challenge: Return melting point for the following molecule: Cc1cc(-c2sc(N3C[C@@H](C)O[C@@H](C)C3)nc2CNC(=O)CC(C)C)cc(C)n1 [Compound 42]
Response given: 184

Challenge: Return melting point for the following molecule: Cc1cc(C(=O)NCc2nc(N3C[C@@H](C)O[C@@H](C)C3)sc2-c2ccnc(C(F)(F)F)c2)no1 [Compound 199]
Response given: 228

Challenge: Return melting point for the following molecule: Cc1cc(-c2sc(N3CCOC(C)C3)nc2CNC(=O)c2ccc(F)cc2C)cc(C)n1 (single isomer, unassigned) [Compound 77]
Response given: 188

Challenge: Return melting point for the following molecule: CCCC(=O)NCc1nc(N2CCOCC2)sc1-c1cc(C)nc(C)c1 [Compound 67]
Response given: 178

Challenge: Return melting point for the following molecule: Cc1cc(-c2sc(N3CCOC(C(F)(F)F)C3)nc2CNC(=O)c2conc2C)cc(C)n1 (stereo not drawn) [Compound 196]
Response given: 178

Challenge: Return melting point for the following molecule: Cc1cc(-c2sc(N3CCOC(C)C3)nc2CNC(=O)C(C)C)cc(C)n1 (single isomer, unassigned) [Compound 76]
Response given: 189

Challenge: Return melting point for the following molecule: Cc1cc(-c2sc(N3C[C@@H](C)O[C@@H](C)C3)nc2CNC(=O)c2nn(C)cc2C)cc(C)n1 [Compound 172]
Response given: 165

Challenge: Return melting point for the following molecule: Cc1cc(-c2sc(N3CCOC(C)C3)nc2CNC(=O)c2cc(C)on2)cc(C)n1 (single isomer, unassigned) [Compound 74]
Response given: 167

Challenge: Return melting point for the following molecule: COc1cc(-c2sc(N3C[C@@H](C)O[C@@H](C)C3)nc2CNC(=O)c2cc(C)on2)cc(C)n1 [Compound 82]
Response given: 203

Challenge: Return melting point for the following molecule: Cc1ccc(-c2sc(N3C[C@@H](C)O[C@@H](C)C3)nc2CNC(=O)c2ccc(F)cc2)cn1 [Compound 126]
Response given: 195

Challenge: Return melting point for the following molecule: Cc1cc(-c2sc(N3C[C@@H](C)O[C@@H](C)C3)nc2CNC(=O)C2CCCC2)c(C)cn1 [Compound 96]
Response given: 173

Challenge: Return melting point for the following molecule: Cc1cc(-c2sc(N3C[C@@H](C)O[C@@H](C)C3)nc2CNC(=O)c2sccc2C)cc(C)n1 [Compound 150]
Response given: 184

Challenge: Return melting point for the following molecule: O=C(NCc1nc(N2CCOCC2)sc1-c1ccncc1)C1CC1 [Compound 116]
Response given: 189

Challenge: Return melting point for the following molecule: Cc1cc(-c2sc(N3C[C@@H](C)O[C@@H](C)C3)nc2CNC(=O)c2ccc3c(c2)OC(F)(F)O3)cc(C)n1 [Compound 45]
Response given: 175

----------
biological target: human alpha 7-wt nAChR (Homo sapiens); construct: expressed in transfected cells; experiment: Ca2+ flux imaging (FDSS) (Protocol B); format: cell-based; conditions: potentiation of 100 μM choline; compounds 0.01 μM to 30 μM; read-out: a7-PAM-G_[33]_pEC50 pEC50 (converted)
Please respond with reported log10 of EC50 for every item in the list.
Reminder: these figures are log10 of reported EC50, in nM before transformation.

Challenge: Return log10 of EC50 for the following compound: Cc1cc(-c2sc(N3C[C@@H](C)O[C@@H](C)C3)nc2CNC(=O)c2cc(C)on2)c(C)cn1 [Compound 98]
Response given: 3.61

Challenge: Return log10 of EC50 for the following compound: Cc1cc(-c2sc(N3C[C@@H](C)O[C@@H](C)C3)nc2CNC(=O)c2occc2C)cc(C)n1 [Compound 147]
Response given: 2.96

Challenge: Return log10 of EC50 for the following compound: Cc1cc(-c2sc(N3C[C@@H](C)O[C@@H](C)C3)nc2CNC(=O)c2ncoc2C)cc(C)n1 [Compound 161]
Response given: 3.71

Challenge: Return log10 of EC50 for the following compound: Cc1cc(-c2sc(N3C[C@@H](C)O[C@@H](C)C3)nc2CNC(=O)C2CC2)cc(C)n1 [Compound 48]
Response given: 2.82

Challenge: Return log10 of EC50 for the following compound: Cc1cc(-c2sc(N3C[C@@H](C)O[C@@H](C)C3)nc2CNC(=O)CC2CCC2)cc(C)n1 [Compound 49]
Response given: 1.42

Challenge: Return log10 of EC50 for the following compound: CCC(=O)NCc1nc(N2C[C@@H](C)O[C@@H](C)C2)sc1-c1cc(C)nc(C)c1 [Compound 39]
Response given: 2.94

Challenge: Return log10 of EC50 for the following compound: Cc1cc(-c2sc(N3CCOC(C)C3)nc2CNC(=O)c2ccc(F)cc2C)cc(C)n1 (single isomer, unassigned) [Compound 70]
Response given: 1.91
